- tested system: Enoyl-acyl carrier reductase ENR (Toxoplasma gondii, UniProt Q6UCJ9)
- Sequence (Q6UCJ9 whole entry): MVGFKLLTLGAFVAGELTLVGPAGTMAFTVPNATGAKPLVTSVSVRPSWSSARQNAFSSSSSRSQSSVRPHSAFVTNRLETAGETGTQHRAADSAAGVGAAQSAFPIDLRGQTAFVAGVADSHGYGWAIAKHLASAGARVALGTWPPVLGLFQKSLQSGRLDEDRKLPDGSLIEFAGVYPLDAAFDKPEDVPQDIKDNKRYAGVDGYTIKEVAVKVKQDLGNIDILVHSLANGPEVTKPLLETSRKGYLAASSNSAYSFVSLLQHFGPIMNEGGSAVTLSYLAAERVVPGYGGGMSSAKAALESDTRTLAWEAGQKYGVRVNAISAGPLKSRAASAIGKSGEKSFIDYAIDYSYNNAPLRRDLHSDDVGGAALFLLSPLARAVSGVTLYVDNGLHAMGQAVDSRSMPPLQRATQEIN
- test method notes: TgENR Inhibition Assay
- protocol conditions: pH 7.5
property: pIC50
Remember, pIC50 is on a log scale: it is -log10 of the molar concentration.

// lookup pIC50 for CCCCc1cn(Cc2ccc(Oc3ccc(Cl)cc3O)c(Cl)c2)nn1 7.37

Record: Oc1cc(Cl)ccc1Oc1ccc(CNc2ccccc2)cc1Cl 7.51

Same thing, different compound: Oc1ccc(Oc2ccc(Cl)cc2O)c(Cl)c1 8.52

Next up: CCc1ccc(Oc2ccc(Cl)cc2Cl)c(O)c1 8.10

What do you have for N#Cc1ccc(Oc2ccc(Cl)cc2Cl)c(O)c1 ? 7.62

Could you do the same for Oc1cc(Cl)ccc1Oc1ccc(NCc2ccccc2)cc1Cl , please? 7.89

Request: Cc1cc(C(=O)NCc2ccc(Oc3ccc(Cl)cc3O)c(Cl)c2)no1 7.00

Item: N#Cc1ccccc1CNc1ccc(Oc2ccc(Cl)cc2O)c(Cl)c1 7.80

Please give the result for Cc1cc(CC(=O)NCc2ccc(Oc3ccc(Cl)cc3O)c(Cl)c2)on1 too. 7.48

Now give it for Oc1cc(Cl)ccc1Oc1ccc(Cn2ccnn2)cc1Cl too. 7.59
